- tested.system: human OX2 receptor (Homo sapiens, UniProt O43614)
- Construct: expressed in transfected cells
- Sequence (O43614 whole entry): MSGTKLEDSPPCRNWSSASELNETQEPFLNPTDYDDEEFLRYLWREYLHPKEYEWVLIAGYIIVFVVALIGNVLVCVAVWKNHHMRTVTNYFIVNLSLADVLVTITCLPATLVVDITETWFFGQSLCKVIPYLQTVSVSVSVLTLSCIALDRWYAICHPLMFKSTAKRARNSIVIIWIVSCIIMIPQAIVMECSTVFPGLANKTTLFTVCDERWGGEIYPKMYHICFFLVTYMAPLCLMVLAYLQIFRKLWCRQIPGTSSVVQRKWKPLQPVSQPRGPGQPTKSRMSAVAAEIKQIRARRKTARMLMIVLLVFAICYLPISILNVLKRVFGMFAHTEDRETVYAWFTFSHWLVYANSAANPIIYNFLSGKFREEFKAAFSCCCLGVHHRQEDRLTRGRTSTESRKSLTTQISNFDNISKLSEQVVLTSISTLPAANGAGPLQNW
- procedure.text: Measurement of orexin type 2 receptor agonist activity (calcium fluorescence, Fluo-4 AM, FDSS)
- Assay type: cell-based
- assay.conditions: compound at 3 μM; CHO cells forcibly expressing human OX2 receptor; DMSO = 0%, 10 nM orexin A (human) = 100%
result.type: OX2R agonist activity (3 μM, %)
Answers are plain numbers, in %.

{"molecule": "Cc1cnc(C2(C(F)F)CC(N3C[C@@H](NS(C)(=O)=O)C(F)(F)C3)=NO2)c(-c2c(F)cccc2F)c1 (stereo partly shown) [Example 59]", "tested.system": "human OX2 receptor (Homo sapiens, UniProt O43614)", "result.type": "OX2R agonist activity (3 μM, %)", "value": 101}
{"molecule": "CS(=O)(=O)N[C@@H]1CN(C2=NOC(CF)(c3ncc(F)cc3-c3c(F)cc(F)cc3F)C2)C[C@@H]1F (stereo partly shown) [Example 113]", "tested.system": "human OX2 receptor (Homo sapiens, UniProt O43614)", "result.type": "OX2R agonist activity (3 μM, %)", "value": 100}
{"molecule": "Cc1cnc([C@@H]2CC(N3C[C@@H](F)[C@H](NS(=O)(=O)N(C)C)C3)=NO2)c(-c2c(F)cc(F)cc2F)c1 [Example 77]", "tested.system": "human OX2 receptor (Homo sapiens, UniProt O43614)", "result.type": "OX2R agonist activity (3 μM, %)", "value": 102}

# batch size: 4; output OX2R agonist activity (3 μM, %) per entry
1. CC1(c2ncc(F)cc2-c2c(F)cccc2F)CC(N2C[C@H](F)[C@H](NS(C)(=O)=O)C2)=NO1 (stereo partly shown) [Example 118]
2. CCS(=O)(=O)N[C@@H]1CN(C2=NOC(c3ncc(Cl)cc3-c3c(F)cc(F)cc3F)C2)CC1(F)F (stereo partly shown) [Example 42]
3. CCS(=O)(=O)N[C@@H]1CN(C2=NO[C@H](c3ncc(C)cc3-c3c(F)cccc3F)C2)CC1(F)F [Example 22]
4. CCS(=O)(=O)N[C@@H]1CN(C2=NOC(COC)(c3ncc(F)cc3-c3c(F)cccc3F)C2)C[C@@H]1F (stereo partly shown) [Example 132]

Out:
1: 100; 2: 100; 3: 102; 4: 110

Ref: patent US20240217957A1
